Recorded T/C, one value per entry.
# Test system: L1210 leukemia ip in BDF1 mice, survival T/C
# testDetails: NCI In Vivo Anticancer Drug Screen. Data for tumor model L1210 Leukemia (intraperitoneal) in B6D2F1 (BDF1) mice
# runConditions: endpoint: mean survival time; dose: 400.0 mg/kg/injection; schedule: Q01DX009 (ip); vehicle: Klucel (hydroxypropylcellulose) (HPC); higher = longer survival
Toxic doses and inconclusive results are not listed.
measurementLabel: T/C

>>> reported("CCOC(=O)CCC1C(C#N)C2(Cl)C(Cl)=C(Cl)C1(Cl)C2(Cl)Cl (configuration not stated)")
"96 % of control"
>>> reported("Cc1cc(=O)n(Cc2ccccc2)c(O)c1C")
"93 % of control"
>>> reported("COc1ccccc1C(=O)N/N=C/c1ccc(O)cc1")
"94 % of control"
>>> reported("CCOc1ccc(NC(=O)C(Br)C(Br)C(=O)O)cc1 (configuration not stated)")
"100 % of control"
>>> reported("O=C1CCCC/C1=C/c1ccc(Cl)cc1")
"101 % of control"
>>> reported("CSc1ssc(=Nc2ccc(C)cc2)c1-c1ccccc1")
"93 % of control"
>>> reported("C#CC(O)C1OC2OC(C)(C)OC2C1O (configuration not stated)")
"96 % of control"
>>> reported("CCOC(=O)c1cc(OC(C)=O)c2c(ccc3ccccc32)c1C")
"91 % of control"
>>> reported("O=C(Nc1ccc2ccccc2c1)c1ccccc1Cl")
"101 % of control"
>>> reported("O=C(O)c1cccc(OCCCOc2ccccc2)c1")
"95 % of control"
>>> reported("O=C(Nc1cccc(Cl)c1Cl)N1CCN(c2ccccc2)CC1")
"97 % of control"
>>> reported("CC1(C)C/C(=C\\c2ccc(Cl)cc2)C(=O)c2ccccc21")
"97 % of control"

====

# Test system: L1210 leukemia ip in BDF1 mice, survival T/C
# testDetails: NCI In Vivo Anticancer Drug Screen. Data for tumor model L1210 Leukemia (intraperitoneal) in B6D2F1 (BDF1) mice
# runConditions: endpoint: mean survival time; dose: 100.0 mg/kg/injection; schedule: Q04DX003 (ip); vehicle: Klucel (hydroxypropylcellulose) (HPC); higher = longer survival
Inconclusive results and toxic doses are left out.
measurementLabel: T/C

>>> reported("O=[N+]([O-])c1cc(NS(=O)(=O)c2ccccc2)ccc1NS(=O)(=O)c1ccccc1")
"111 % of control"
>>> reported("Cc1nc2nc(Cl)c(Cl)nc2[nH]1")
"102 % of control"
>>> reported("Cc1ccc(C)c(NC(=O)NC(C)C)c1")
"96 % of control"
>>> reported("c1ccc(-c2cn3ccccc3n2)cc1")
"96 % of control"
>>> reported("NC(=O)c1nc2ccccc2nc1C(N)=O")
"92 % of control"
>>> reported("O=C(O)CCC1C2CC(C1C(=O)O)C1C3CCC(C3)C21 (stereo not given)")
"100 % of control"
>>> reported("CC1=C(Br)C(=O)C(c2c(C)c(Br)c(C)c([N+](=O)[O-])c2C)=C(Br)C1=O")
"102 % of control"
>>> reported("CCOC(=O)C1(C(=O)OCC)CCC(OCC)N1C(=O)c1cc(OC)c(OC)cc1[N+](=O)[O-] (stereo not given)")
"105 % of control"
>>> reported("COc1cc([N+](=O)[O-])ccc1-c1c(C(=O)O)cccc1[N+](=O)[O-]")
"101 % of control"
>>> reported("CN(C)C(=S)SCNC(=S)NCSC(=S)N(C)C")
"106 % of control"
>>> reported("CCCCCCCCCCCCCCCCCCCCCCCCCCCCCC")
"93 % of control"
>>> reported("NC1CCC(CC2CCCCC2)CC1 (stereo not given)")
"91 % of control"
>>> reported("c1ccc(CN=C2c3ccccc3C3(c4ccccc4)C2N3Cc2ccccc2)cc1 (stereo not given)")
"98 % of control"
>>> reported("Cc1c(Cl)cccc1NC(=O)c1cccc([N+](=O)[O-])c1")
"96 % of control"
>>> reported("ClCc1ccc(CCl)c2ccccc12")
"104 % of control"
>>> reported("Cc1cc(C)c([N+](=O)[O-])c(C)c1C(=O)C(C)C")
"96 % of control"
>>> reported("CSc1ccc(OC(=O)NC2CCCCC2)cc1")
"98 % of control"
>>> reported("OCc1cc(-c2ccc(Cl)cc2)nc2c(C(F)(F)F)cccc12")
"102 % of control"
>>> reported("CCc1ccccc1NC(=O)Nc1ccccc1C")
"88 % of control"
>>> reported("O=C1c2cc(Cl)ccc2-c2c1cc(Cl)cc2[N+](=O)[O-]")
"100 % of control"
>>> reported("O=C1NN=C(c2ccccc2)CC1c1ccccc1 (stereo not given)")
"101 % of control"
>>> reported("O=S(=O)(Nc1ccc(F)cc1)c1ccccc1")
"103 % of control"
>>> reported("Cc1ccc(NC(=O)N(Cc2ccccc2)Cc2ccccc2)c([N+](=O)[O-])c1")
"95 % of control"
>>> reported("ClCc1ccc2c(c1)OCO2")
"104 % of control"
>>> reported("CCCCCCCCCCCCCCCCOc1ccc(Cl)cc1")
"97 % of control"

====

# reported T/C; entries follow
# Tested on: L1210 leukemia ip in BDF1 mice, survival T/C
# testDetails: NCI In Vivo Anticancer Drug Screen. Data for tumor model L1210 Leukemia (intraperitoneal) in B6D2F1 (BDF1) mice
# runConditions: endpoint: mean survival time; dose: 100.0 mg/kg/injection; schedule: Q04DX003 (ip); vehicle: Klucel (hydroxypropylcellulose) (HPC); higher = longer survival
Inconclusive results and toxic doses are left out.
measurementLabel: T/C

>>> reported("CCC[n+]1nc2ccccc2c(=Nc2ccccc2[N+](=O)[O-])[n-]1")
"98 % of control"
>>> reported("CCO/C=C1\\SC(=S)N(c2ccc(O)cc2)C1=O")
"98 % of control"
>>> reported("COc1cc2c(ccc3c4cc(OC)c(OC)cc4c[n+](C)c23)cc1O")
"120 % of control"
>>> reported("O=C1OC(=O)C2C3C=CC(C3)C12 (stereo unspecified)")
"102 % of control"
>>> reported("O=C1c2ccccc2C(c2ccccc2)(N(CCCl)CCCl)N1C1CCCCC1 (stereo unspecified)")
"103 % of control"
>>> reported("N#CSC/C=C/Cl")
"92 % of control"

====

# System: L1210 leukemia ip in BDF1 mice, survival T/C
# testDetails: NCI In Vivo Anticancer Drug Screen. Data for tumor model L1210 Leukemia (intraperitoneal) in B6D2F1 (BDF1) mice
# runConditions: endpoint: mean survival time; dose: 100.0 mg/kg/injection; schedule: Q04DX003 (ip); vehicle: saline with Tween-80; higher = longer survival
Toxic doses and inconclusive results are not listed.
measurementLabel: T/C

>>> reported("COc1ccc(NC(=O)Nc2cc(C(F)(F)F)ccc2Cl)cc1")
"88 % of control"
>>> reported("Cc1c2ccncc2c(C)c2c1[nH]c1ccc(Cl)cc12")
"98 % of control"
>>> reported("CCSC(SCC)C(OC(C)=O)C(OC(C)=O)C(OC(C)=O)C(C)OC(C)=O (stereo unspecified)")
"107 % of control"
>>> reported("NC(=O)c1ccc(OC(F)(F)C(F)Cl)cc1OC(F)(F)C(F)Cl (stereo unspecified)")
"98 % of control"
>>> reported("CCOC(=O)c1cc2ccccc2c2ccccc12")
"98 % of control"
>>> reported("Cc1cc(C)n(/N=C/c2cccc(Cl)c2)c(=O)c1C#N")
"95 % of control"

====

Reported T/C values for a set of compounds
# System: L1210 leukemia ip in BDF1 mice, survival T/C
# testDetails: NCI In Vivo Anticancer Drug Screen. Data for tumor model L1210 Leukemia (intraperitoneal) in B6D2F1 (BDF1) mice
# runConditions: endpoint: mean survival time; dose: 12.5 mg/kg/injection; schedule: Q04DX003 (ip); vehicle: saline; higher = longer survival
Toxic doses and inconclusive results are not listed.
measurementLabel: T/C

>>> reported("C=C(Br)CNS(C)(=O)=O")
"98 % of control"
>>> reported("CCCCCCCCCCNC(=O)C[n+]1cccc(C(N)=O)c1")
"86 % of control"
>>> reported("O=C1CC(c2cccc(S(=O)(=O)O)c2)=NN1c1ccc([N+](=O)[O-])cn1")
"95 % of control"
>>> reported("CC1OC(O[C@H]2C[C@@H](O)[C@]3(CO)[C@H]4[C@H](O)C[C@]5(C)[C@@H](C6=CC(=O)OC6)CC[C@]5(O)[C@@H]4CC[C@]3(O)C2)C(O)C(O)C1O (stereo not given in full)")
"92 % of control"
>>> reported("CN1C=c2c3c(ccc2=C2C=CC4C=C5OCOC5=CC4=C21)OCO3 (stereo not given)")
"88 % of control"
>>> reported("CCCCCC[N+]1(C)CC2C3C=CC(C3)C2C1 (stereo not given)")
"103 % of control"
>>> reported("FCCBr")
"107 % of control"
>>> reported("O=C(CCc1ccccc1)NC1CCCCC1")
"88 % of control"
>>> reported("NCCCC1C(CN)C2CC1C1C3CCC(C3)C21 (stereo not given)")
"97 % of control"
>>> reported("CCN(CC)CCC1CCNCC1")
"100 % of control"
